Hello, the source for this data is patent US9550792B2, in case you need it.

Target: JNK2 (Homo sapiens)
Sequence (P45984 26-321 limits assumed): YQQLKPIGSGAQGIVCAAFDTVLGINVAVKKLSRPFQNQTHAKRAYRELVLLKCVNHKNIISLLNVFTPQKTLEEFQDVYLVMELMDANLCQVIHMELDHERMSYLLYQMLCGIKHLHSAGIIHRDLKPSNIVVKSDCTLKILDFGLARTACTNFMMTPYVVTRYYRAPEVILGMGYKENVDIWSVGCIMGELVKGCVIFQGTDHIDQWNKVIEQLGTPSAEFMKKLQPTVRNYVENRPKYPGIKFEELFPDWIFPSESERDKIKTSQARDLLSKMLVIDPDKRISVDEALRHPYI
Test: Kinase IC50, 33P labeled isotope method
Assay type: biochemical
Outcome measure: pIC50
pIC50 field: float, defined as -log10 of concentration (mol/L).

Query (molecule): CN1CCN(Cc2ccc(NC(=O)c3n[nH]cc3Nc3ncnc4[nH]ccc34)cc2)CC1 ; field requested: pIC50
5.88

---

Experiment: Pharmacokinetics after single oral dose in rats
Format: in vivo, Wistar rat
Details: male, Wistar, plasma; rat, oral 30 mg/kg; read-out: MRT 0-24
Outcome measure: MRT last (h)
Answer format: numeric, h implied, no suffix.

CN1CCN(Cc2ccc(NC(=O)c3n[nH]cc3Nc3ncnc4sccc34)cc2)CC1	11.6

From here, focus on the item given below.
Query (compound): O=C(Nc1ccc(CN2CCOCC2)cc1)c1n[nH]cc1Nc1ncnc2sccc12 ; field requested: MRT last
13.8
